Test system: Escherichia coli
Assay: Binding affinity to Escherichia coli MRE600 ribosome assessed as protection against N1-cyclohexyl-N3-(2-morpholino)ethylcarbodiimide p-toluenesulfonate-induced modifications at nucleotide U2506 in peptidyl transferase center of 23S rRNA at 50 uM by chemical footprinting relative to control
Recorded Metric: Activity

{"Chemical Smiles": "C=C[C@]1(C)C[C@@H](OC(=O)Cn2cc(Cn3cc(C)c(=O)[nH]c3=O)nn2)[C@]2(C)[C@H](C)CC[C@]3(CCC(=O)[C@@H]32)[C@@H](C)[C@@H]1O", "Activity": 0.18}
{"Chemical Smiles": "C=C[C@]1(C)C[C@@H](OC(=O)CO)[C@]2(C)[C@H](C)CC[C@]3(CCC(=O)[C@@H]32)[C@@H](C)[C@@H]1O", "Activity": 0.1}
{"Chemical Smiles": "C=C[C@]1(C)C[C@@H](OC(=O)Cn2cc(CCCc3ccccc3)nn2)[C@]2(C)[C@H](C)CC[C@]3(CCC(=O)[C@@H]32)[C@@H](C)[C@@H]1O", "Activity": 0.08}

P = C=C[C@]1(C)C[C@@H](OC(=O)Cn2cc(CCCn3ccc(N)nc3=O)nn2)[C@]2(C)[C@H](C)CC[C@]3(CCC(=O)[C@@H]32)[C@@H](C)[C@@H]1O
Q = C=C[C@]1(C)C[C@@H](OC(=O)Cn2cc(CCn3cnc4c(N)ncnc43)nn2)[C@]2(C)[C@H](C)CC[C@]3(CCC(=O)[C@@H]32)[C@@H](C)[C@@H]1O
R = C=C[C@]1(C)C[C@@H](OC(=O)Cn2cc(Cn3ccc(N)nc3=O)nn2)[C@]2(C)[C@H](C)CC[C@]3(CCC(=O)[C@@H]32)[C@@H](C)[C@@H]1O
Please list the entries, largest Activity first. Please respond by ranking the labels in the order requested.
R, Q, P
(R: 0.16, Q: 0.1, P: 0.05)
